tested on: A498; assay: NCI tumour cell line growth inhibition, 48 h
Activity calls are given as the source filed them. Rule as the data show it: active = GI50 up to about 1.1 µM and inactive = higher.
Readout Label: GI50

INSERT INTO measurements (compound, test_system, test_value) VALUES
  ('C[N+]1(C)C2Cc3ccccc3C1Cc1ccccc12', 'A498', '> 100 µM (inactive)'),
  ('O=c1cc(CNC2CCCC2)[nH]c(=O)[nH]1', 'A498', '> 100 µM (inactive)'),
  ('O=C(CSc1nc(-c2ccccc2)c(-c2ccccc2)[nH]1)N/N=C/c1ccc([N+](=O)[O-])cc1', 'A498', '14 µM (inactive)'),
  ('Cc1nc(O)nc(N/N=C/c2ccc(Cl)cc2)c1C(=O)NC(C)(CO)CO', 'A498', '> 100 µM (inactive)'),
  ('CCOC(=O)C1(Br)C(c2ccccc2)NC(=O)NC1(C)Br (stereo not given)', 'A498', '> 100 µM (inactive)'),
  ('COC(=O)/C([Se]c1c(C)cc(C)cc1C)=C(/[Se]c1c(C)cc(C)cc1C)C(=O)OC', 'A498', '> 100 µM (inactive)'),
  ('CN(/N=C/c1cccc2cccnc12)c1ccc([N+](=O)[O-])cc1', 'A498', '> 100 µM (inactive)'),
  ('N=c1c2c3n(c4c(=O)n(-c5ccccc5)c(=S)n(c(=O)n1-c1ccccc1)c24)CCCCC3', 'A498', '> 96.2 µM (inactive)'),
  ('NCCCN(CCCCN(CCCN)C(=O)OCc1ccccc1)C(=O)OCc1ccccc1', 'A498', '> 100 µM (inactive)'),
  ('CC(=O)N1C(CCc2ccccc2)CC(C)(C=O)C1Cc1ccc(O[Si](C(C)C)(C(C)C)C(C)C)cc1 (stereo not given)', 'A498', '2.87 µM (inactive)');
